Values compiled from ChEMBL document CHEMBL4616591.

Biological target: Cholinesterase (Equus caballus)
Sequence (P81908 whole entry): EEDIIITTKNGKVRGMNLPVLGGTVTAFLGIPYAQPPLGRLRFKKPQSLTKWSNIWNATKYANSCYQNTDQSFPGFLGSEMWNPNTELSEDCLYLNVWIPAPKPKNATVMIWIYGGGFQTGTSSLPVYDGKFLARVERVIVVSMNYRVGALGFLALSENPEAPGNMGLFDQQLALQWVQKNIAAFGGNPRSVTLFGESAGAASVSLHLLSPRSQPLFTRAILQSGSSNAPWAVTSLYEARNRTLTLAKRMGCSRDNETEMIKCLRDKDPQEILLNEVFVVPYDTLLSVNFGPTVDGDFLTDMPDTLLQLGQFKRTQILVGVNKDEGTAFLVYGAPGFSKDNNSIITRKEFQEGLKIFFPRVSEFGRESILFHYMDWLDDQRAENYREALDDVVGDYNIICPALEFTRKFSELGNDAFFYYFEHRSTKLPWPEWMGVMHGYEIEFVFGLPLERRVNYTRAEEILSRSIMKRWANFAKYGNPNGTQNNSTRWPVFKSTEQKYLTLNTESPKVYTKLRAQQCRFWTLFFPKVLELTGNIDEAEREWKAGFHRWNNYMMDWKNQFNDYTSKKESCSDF
Assay: Inhibition of equine serum BuChE using butylthiocholine chloride as substrate peincubated for 15 mins followed by substrate addition measured at 1 min interval by Ellman's method
pIC50: −log10 of the molar value.
Listed here: items and their measured pIC50.
metric: pIC50

1) C#CCN(CC#C)c1c2c(nc3cc(Cl)ccc13)CCCC2 5.27
2) C#CCNc1c2c(nc3cc(Cl)ccc13)CCCC2 7.08
3) C#CCNc1c2c(nc3ccccc13)CCCC2 7.11
4) C#CCN(CC#C)CCNc1c2c(nc3ccccc13)CCCC2 6.45

* * *

Target: Amine oxidase [flavin-containing] A (Homo sapiens, UniProt P21397)
Sequence (P21397 whole entry): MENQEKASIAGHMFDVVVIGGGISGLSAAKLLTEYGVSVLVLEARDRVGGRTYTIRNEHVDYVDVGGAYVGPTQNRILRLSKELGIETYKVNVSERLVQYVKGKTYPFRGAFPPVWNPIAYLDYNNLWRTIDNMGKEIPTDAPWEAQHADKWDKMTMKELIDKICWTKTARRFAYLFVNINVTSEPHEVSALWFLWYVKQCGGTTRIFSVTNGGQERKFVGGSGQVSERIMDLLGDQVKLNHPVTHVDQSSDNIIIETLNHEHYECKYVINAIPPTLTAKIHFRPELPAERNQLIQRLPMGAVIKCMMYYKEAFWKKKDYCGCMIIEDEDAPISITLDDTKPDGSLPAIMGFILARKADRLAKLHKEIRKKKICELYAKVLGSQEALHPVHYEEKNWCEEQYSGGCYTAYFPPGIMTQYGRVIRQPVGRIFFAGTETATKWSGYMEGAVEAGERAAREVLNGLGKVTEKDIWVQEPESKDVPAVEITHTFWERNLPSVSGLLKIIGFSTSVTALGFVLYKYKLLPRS
metric: IC50

1. C#CCN(C)Cc1cc2cc(OCCCC3CCN(Cc4ccccc4)CC3)ccc2n1C 5.44 nM

* * *

Target: Cholinesterase (Equus caballus)
Test: Inhibition of equine serum BuChE by Ellman's method
pIC50: −log10 of the molar value.
metric: pIC50

1. C#CCN(C)c1nc(NCCCCC2CCN(Cc3ccccc3)CC2)c(C#N)cc1C#N 6.22
